Corn plant response rating (0 to 10 scale): recorded values
- System: corn
- ASSAY: Test B pre/postemergence corn
- Assay type: in vivo, Zea mays
- TEST CONTEXT: Preemergence, Rate 125 g/ha; 0 is no effect, 10 is complete control

Solved entries:
CC(C)N(C(=O)n1oc(=O)n([C@H](C)c2ccccc2)c1=O)c1ccc(Cl)cc1 [Compound 178] | 0
CC(C)N(C(=O)n1oc(=O)n(CCCl)c1=O)c1ccc(F)cc1 [Compound 148] | 0
CC(C)N(C(=O)n1oc(=O)n(-c2cnn(C)c2Cl)c1=O)c1ccccc1 [Compound 122] | 0
Cc1ccccc1-n1c(=O)on(C(=O)N(c2ccc(S(C)(=O)=O)cc2)C(C)C)c1=O [Compound 203] | 0

Challenge: Value lookup for Corn plant response rating (0 to 10 scale); key = CC1CCCCC1n1c(=O)on(C(=O)N(c2ccc(F)cc2)C(C)C)c1=O (stereo not drawn) [Compound 161]
Response given: 0

Challenge: Value lookup for Corn plant response rating (0 to 10 scale); key = CC(C)N(C(=O)n1oc(=O)n(C(C)c2ccccc2)c1=O)c1ccc(F)cc1 (stereo not drawn) [Compound 134]
Response given: 0

---

- Test system: blackgrass
- ASSAY: Test B pre/postemergence blackgrass
- Format: in vivo, Alopecurus myosuroides
- TEST CONTEXT: Rate 125 g/ha, Postemergence; scale 0 to 10
READOUT: Blackgrass plant response rating
// return a plain number; no unit text

Solved entries:
Cc1ccccc1-n1c(=O)on(C(=O)N(c2ccc(S(C)(=O)=O)cc2)C(C)C)c1=O | 0
CC(C)N(C(=O)n1oc(=O)n(CCC2CCCCC2)c1=O)c1ccc(F)cc1 | 0
COCCOCn1c(=O)on(C(=O)N(c2ccc(F)cc2)C(C)C)c1=O | 5

Challenge: Value lookup for Blackgrass plant response rating; key = Cc1ccccc1-n1c(=O)on(C(=O)N(c2ccc(-c3ccccc3)cc2)C(C)C)c1=O
Response given: 0

Challenge: Value lookup for Blackgrass plant response rating; key = CCOC(=O)C(C)N(C(=O)n1oc(=O)n(-c2c(C)cccc2C)c1=O)c1ccc(F)cc1 (centres unmarked)
Response given: 0

---

- Test system: sugar beet
- ASSAY: Test B pre/postemergence sugar beet
- Assay type: in vivo, Beta vulgaris
- TEST CONTEXT: Postemergence, Rate 62 g/ha; scale 0 to 10, 0 is no effect, 10 is complete control
READOUT: Plant response rating, Sugarbeets
// return a plain number; no unit text

Solved entries:
CCOP(=O)(OCC)C(C)n1c(=O)on(C(=O)N(c2ccc(F)cc2F)C(C)C)c1=O (centres unmarked) | 0
CC(=O)NCn1c(=O)on(C(=O)N(c2ccccc2)C(C)C)c1=O | 0
C=C(Cn1c(=O)on(C(=O)N(c2ccccc2)C(C)C)c1=O)C(C)(C)C | 0
CC[C@@H](C)n1c(=O)on(C(=O)N(c2ccc(F)cc2F)C(C)C)c1=O | 0

Challenge: Value lookup for Plant response rating, Sugarbeets; key = CC(C)N(C(=O)n1oc(=O)n(CC(F)F)c1=O)c1ccc(F)cc1F
Response given: 1

---

- Test system: sugar beet
- ASSAY: Test B pre/postemergence sugar beet
- Type: in vivo, Beta vulgaris
- TEST CONTEXT: Postemergence, Rate 125 g/ha; scale of 0 to 10 where 0 is no effect and 10 is complete control
Sugarbeets plant response rating: recorded values
// return a plain number; no unit text

CC(C)N(C(=O)n1oc(=O)n(CC(F)F)c1=O)c1ccccc1 | 0
CC(C)N(C(=O)n1oc(=O)n([C@H](C)c2ccccc2)c1=O)c1ccc(Cl)cc1 | 0

Challenge: Lab note: need Sugarbeets plant response rating with sugar beet for entry Cc1ccccc1Cn1c(=O)on(C(=O)N(c2ccc(Cl)cc2)C(C)C)c1=O , please look it up.
Response given: 4

Challenge: Lab note: need Sugarbeets plant response rating with sugar beet for entry CC(C)N(C(=O)n1oc(=O)n(C(C)c2ccccc2)c1=O)c1ccc(F)cc1 (stereo not shown) , please look it up.
Response given: 0

Challenge: Lab note: need Sugarbeets plant response rating with sugar beet for entry COC(=O)C(CCO)n1c(=O)on(C(=O)N(c2ccccc2)C(C)C)c1=O (stereo not shown) , please look it up.
Response given: 0

Challenge: Lab note: need Sugarbeets plant response rating with sugar beet for entry CC(C)N(C(=O)n1oc(=O)n(-c2nc(Cl)sc2Cl)c1=O)c1ccc(F)cc1 , please look it up.
Response given: 0

Challenge: Lab note: need Sugarbeets plant response rating with sugar beet for entry CC(C)N(C(=O)n1oc(=O)n(CC(F)F)c1=O)c1ccc(F)cc1F , please look it up.
Response given: 2

---

- System: crabgrass
- ASSAY: Test B pre/postemergence crabgrass
- Format: in vivo, Digitaria sanguinalis
- TEST CONTEXT: Postemergence, Rate 62 g/ha; scale 0 to 10, 0 is no effect, 10 is complete control
Crabgrass plant response rating: recorded values
// return a plain number; no unit text

Cc1nn(C)c(Cl)c1-n1c(=O)on(C(=O)N(c2ccc(F)cc2)C(C)C)c1=O [Compound 95] | 0

Challenge: Value lookup for Crabgrass plant response rating; key = CC(C)N(C(=O)n1oc(=O)n(-c2cnn(C)c2)c1=O)c1ccc(F)cc1 [Compound 98]
Response given: 0

Challenge: Value lookup for Crabgrass plant response rating; key = Cc1ccccc1-n1c(=O)on(C(=O)N(c2cc(F)ccc2F)C(C)C)c1=O [Compound 68]
Response given: 0

Challenge: Value lookup for Crabgrass plant response rating; key = Cc1cccc(C)c1-n1c(=O)on(C(=O)N(c2ccc(F)cc2F)C(C)C)c1=O [Compound 28]
Response given: 3

---

- System: crabgrass
- ASSAY: Test B pre/postemergence crabgrass
- Assay type: in vivo, Digitaria sanguinalis
- TEST CONTEXT: Rate 125 g/ha; Preemergence; scale of 0 to 10 where 0 is no effect and 10 is complete control
READOUT: Crabgrass plant response rating

Solved entries:
COCCOCn1c(=O)on(C(=O)N(c2ccc(F)cc2)C(C)C)c1=O [Compound 258] | 7
COCCOCn1c(=O)on(C(=O)N(c2ccc(F)cc2)C(C)C)c1=O [Compound 220] | 7
Cc1ccccc1-n1c(=O)on(C(=O)N(c2cccc(F)c2)C(C)C)c1=O | 2
CCC(C)N(C(=O)n1oc(=O)n(-c2ccccc2C)c1=O)c1ccc(F)cc1 (centres unmarked) | 7

Challenge: Value lookup for Crabgrass plant response rating; key = CC(C)N(C(=O)n1oc(=O)n(C2CCCC2)c1=O)c1ccc(Cl)cc1
Response given: 1

---

Blackgrass plant response rating: recorded values
- Tested on: blackgrass
- ASSAY: Test B pre/postemergence blackgrass
- Format: in vivo, Alopecurus myosuroides
- TEST CONTEXT: Preemergence, Rate 500 g/ha; scale of 0 to 10 where 0 is no effect and 10 is complete control
// return a plain number; no unit text

Solved entries:
CC(=O)OCCCCn1c(=O)on(C(=O)N(c2ccccc2)C(C)C)c1=O | 0
CC(C)N(C(=O)n1oc(=O)n(C2CCCCCC2)c1=O)c1ccccc1 | 7
C=C(Cn1c(=O)on(C(=O)N(c2ccccc2)C(C)C)c1=O)c1cccnc1 | 0
CC(C)N(C(=O)n1oc(=O)n(C2(C)CC2)c1=O)c1ccccc1 | 10
Cc1ccccc1-n1c(=O)on(C(=O)N(c2ccncc2)C(C)C)c1=O | 0

Kindly consider the entry below.
Challenge: Value lookup for Blackgrass plant response rating; key = COCC(C)n1c(=O)on(C(=O)N(c2ccc(F)cc2F)C(C)C)c1=O (stereo not drawn)
Response given: 10

---

Wild oats plant response rating: recorded values
- Tested on: wild oat
- ASSAY: Test B pre/postemergence wild oat
- Assay type: in vivo, Avena fatua
- TEST CONTEXT: Preemergence, Rate 250 g/ha; scale of 0 to 10 where 0 is no effect and 10 is complete control
// return a plain number; no unit text

Solved entries:
CC(C)N(C(=O)n1oc(=O)n(C(C)Cl)c1=O)c1ccc(F)cc1 (stereo not shown) [Compound 393] | 0
CC(C)N(C(=O)n1oc(=O)[nH]c1=O)c1ccc(F)cc1F [Compound 391] | 0
Cc1ccccc1-n1c(=O)on(C(=O)N(c2ccncc2)C(C)C)c1=O [Compound 301] | 0

Challenge: Value lookup for Wild oats plant response rating; key = COCCOCn1c(=O)on(C(=O)N(c2ccc(F)cc2)C(C)C)c1=O [Compound 220]
Response given: 7

---

- System: morningglory
- ASSAY: Test B pre/postemergence morningglory
- Format: in vivo, Ipomoea hederacea
- TEST CONTEXT: Preemergence, Rate 250 g/ha; scale 0 to 10, 0 is no effect, 10 is complete control
- Protocol: […] At the same time, these crop and weed species were also treated with postemergence applications of test chemicals formulated in the same manner. […] Treated plants and controls were maintained in a greenhouse for twelve to sixteen days, after which all species were compared to controls and visually evaluated. […]
READOUT: Morningglory plant response rating
// return a plain number; no unit text

Solved entries:
CC(C)N(C(=O)n1oc(=O)n(CCl)c1=O)c1ccc(F)cc1F | 0
CC(C)N(C(=O)n1oc(=O)n([C@H](C)c2ccccc2)c1=O)c1ccc(Cl)cc1 | 0
CC(C)N(C(=O)n1oc(=O)n(Cc2cnc(Cl)s2)c1=O)c1ccc(F)cc1 | 0
CCOC(=O)Cn1c(=O)on(C(=O)N(c2ccc(F)cc2)C(C)C)c1=O | 0
CC(C)N(C(=O)n1oc(=O)n(C)c1=O)c1ccccc1 | 5

Kindly consider the entry below.
Challenge: Value lookup for Morningglory plant response rating; key = CC(C)N(C(=O)n1oc(=O)n(CC#N)c1=O)c1ccc(F)cc1F
Response given: 0
